Measured protein stability index values are reported for all entries that follow.
test: protein stability index of a GFP-peptide fusion (yeast GPS) (PSI 1-4); higher = more stable; sorted into four equal gates, so the index is relative within each strain; details: ubr1∆
Enter the number alone.

1. EELLAQYESQAPDGSAS [SWP82] ... 3.08

Returns the measured protein stability index for the input sequence. Input: IGGSDAAFEKRYRVDLL [RPO21] 3.32

Returns the measured protein stability index for the input sequence. Input: VTRIINSSEIQSAIRPA [RPL4A] 2.26

Returns the measured protein stability index for the input sequence. Input: IETEFLLFTVKLKGLMK [IRR1] 3.28

Returns the measured protein stability index for the input sequence. Input: KDMKLLRYYKNIWLNNK [NUT1] 1.28

Returns the measured protein stability index for the input sequence. Input: DTNAPVAATITSSQKEP [SRB8] 2.96

Returns the measured protein stability index for the input sequence. Input: KDVKARIAAGDGDDDDE [QCR9] 2.24

Returns the measured protein stability index for the input sequence. Input: SLEALIDLCHDFPHLTP [YCS4] 2.25
